# koff values compiled below
target: T1, wild type human CD47 (Acro Biosystems, cat. no. CD7-H5227) (human, UniProt Q08722 19-139)
T1 construct: Bought protein used as SPR analyte; also called Human CD47 wt; wild-type CD47
T1 sequence (Q08722 19-139 limits assumed): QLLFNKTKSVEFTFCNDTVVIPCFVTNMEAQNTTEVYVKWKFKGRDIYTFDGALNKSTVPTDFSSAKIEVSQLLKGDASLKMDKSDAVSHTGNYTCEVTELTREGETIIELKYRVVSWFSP
experimental_details: SPR, IgG captured, CD47 in flow; exp 4;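 note: biacore T200 SPR using IgG from transfected HEK293 supernatants against wild-type human CD47 or its C33G mutein, rates fitted to association and dissociation curves, KD estimated from them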
Give just the numeric value; s⁻¹ need not be written.

Example cases with answers are listed next.
binder="108VH5.M21 / 108VL1.M5 (antibody, human IgG4 S228P, kappa, V domains shown, Full-length IgG4 (S228P), kappa; also called VH5.M21 VL1.M5) VH: EVQLVQSGAEVKKPGASVKVSCKASGYTFTHHWMHWVRQAPGQGLEWMGMIDASDFETRYAQKFQGRVTMTRDTSTSTVYMELSSLRSEDTAVYYCARLGRYYFDYWGQGTLVTVSS VL: EIVLTQSPATLSLSPGERATLSCRASQSVSSYLAWYQQKPGQAPRLLIYGASNRATGIPARFSGSGSGTDFTLTISSLEPEDFAVYYCGESYGHLYTFGGGTKVEIKR" value_kind=koff quantitative_result=0.0032
binder="108VH5.M23 / 108VL1.M5 (antibody, human IgG4 S228P, kappa, V domains shown, Full-length IgG4 (S228P), kappa; also called VH5.M23 VL1.M5) VH: EVQLVQSGAEVKKPGASVKVSCKASGYTFTHHWMHWVRQAPGQGLEWMGMIDASDKETRYAQKFQGRVTMTRDTSTSTVYMELSSLRSEDTAVYYCARLGRYYFDYWGQGTLVTVSS VL: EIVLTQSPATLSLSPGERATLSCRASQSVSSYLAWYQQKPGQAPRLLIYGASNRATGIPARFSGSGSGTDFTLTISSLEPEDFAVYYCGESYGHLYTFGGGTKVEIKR" value_kind=koff quantitative_result=0.0028

Now consider the entry below.
input: // returns reported koff for input 108VH5.M27 / 108VL1.M5 (antibody, human IgG4 S228P, kappa, V domains shown, Full-length IgG4 (S228P), kappa; also called VH5.M27 VL1.M5) VH: EVQLVQSGAEVKKPGASVKVSCKASGYTFTHHWMHWVRQAPGQGLEWMGMIDASDYETRYAQKFQGRVTMTRDTSTSTVYMELSSLRSEDTAVYYCARLGRYYFDYWGQGTLVTVSS VL: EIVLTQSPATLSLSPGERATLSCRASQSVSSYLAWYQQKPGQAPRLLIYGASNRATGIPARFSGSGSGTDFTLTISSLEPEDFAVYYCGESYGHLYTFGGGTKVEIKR
output: 0.0036

From: patent US20260132197A1
